Tested on: Fibroblast
measurement protocol: Multiplex assay against human fibroblast
Assay type: toxicity, cell-based
condition label: 12 h, 1 µM, compound concentration 1 uM, replicate 1
measure name: Population Healthy Nuclei (%)
One number for each entry, in %.

Some compounds with known Population Healthy Nuclei (%) results, for comparison:
>>> numeric_value("CCc1cc2c(cc1CC)CC(NC[C@H](O)c1ccc(O)c3[nH]c(=O)ccc13)C2 [INDACATEROL]")
53
>>> numeric_value("Nc1nc2c(c(N3CCNCC3)n1)CCC1=C2[C@@H]2CCCC[C@@H]2O1")
42
>>> numeric_value("CCOc1cc(N2CCC(O)CC2)ccc1Nc1ncc2c(n1)N(C1CCCC1)CCC(=O)N2C")
58
>>> numeric_value("COc1ccc(NS(=O)(=O)c2sc3ccc(Cl)cc3c2C)cc1N1CCNCC1.Cl")
38
>>> numeric_value("O=C(O)c1ccc2cc(-c3ccc(O)c(C45CC6CC(CC(C6)C4)C5)c3)ccc2c1 [O-DEMETHYLATED ADAPALENE]")
20
>>> numeric_value("CC(C)(C)c1cnc(CSc2cnc(NC(=O)C3CCNCC3)s2)o1 [BMS-387032]")
56
>>> numeric_value("CNC(=O)c1cc(Oc2ccc(NC(=O)Nc3cc(C(C)(C)C)nn3-c3ccc4ncccc4c3)c(F)c2)ccn1 [REBASTINIB]")
66

# input for lookup
Exercise: For the record CN(C)CCOc1ccc(-c2nc(-c3ccncc3)c(-c3ccc4c(c3)CC/C4=N\O)[nH]2)cc1 [SB590885] , what value of Population Healthy Nuclei (%) is listed for Fibroblast?
Key: 29

----------
Assign Growth Rate to each entry below.
Tested on: Fibroblast
measurement protocol: Incucyte cell viability with human fibroblast; note: filed as whole numbers so only -1 and 0 and 1 occur
Assay type: toxicity, cell-based
condition label: 12 h, 10 µM, compound concentration 10 uM, replicate number 1, timepoint 12 hours
Numbers only.

Solved entries:
>>> numeric_value("O=C(NC[C@H](O)CN1CCc2ccccc2C1)c1ccnc(NC2CCC2)c1")
0
>>> numeric_value("CCOC(=O)c1cc(C#N)c(N2CCC(C(=O)NS(=O)(=O)Cc3ccccc3)CC2)nc1C")
0
>>> numeric_value("CN(C)C(=O)c1ccc(-c2cc(C(=O)N(C)C3CCCC3)no2)cc1O")
1
>>> numeric_value("C[C@@H]1CCc2ncc(F)cc2[C@H]2CCCN2c2ccn3ncc(c3n2)C(=O)N1 [SELITRECTINIB]")
1
>>> numeric_value("COc1ccc(COc2ccc(Cc3cnc(N)nc3N)cc2OC)cc1 [GW632580X]")
1

Batch request: Growth Rate per item, same order as input.
1. CN(C)CCCn1cc(C2=C(c3c[nH]c4ccccc34)C(=O)NC2=O)c2ccccc21 [GF-109203]
2. O=C(Nc1cccc2c(=O)cc(-c3nnn[nH]3)oc12)c1ccc(OCCCCc2ccccc2)cc1
3. CCCCN(CCCC)C(=O)CN1C[C@@H](c2cc(OC)c3c(c2)OCO3)[C@H](C(=O)O)[C@H]1CC(C)(C)CCC [A-545]
4. N#Cc1ccccc1OCC(O)CNCCNC(=O)Nc1ccccc1 (centres undefined) [ICI-89406]

Key:
1: 1; 2: 0; 3: 0; 4: 0

----------
Kindly supply the reported Population Fragmented Nuclei (%) values for the records listed here.
Test system: HEK-293T
measurement protocol: Multiplex assay against HEK293T
Format: toxicity, cell-based
condition label: human, 12 h, 1 µM, compound concentration 1 uM, replicate 1
Give bare numbers, in %.

The cases that follow already have their Population Fragmented Nuclei (%) on record.
>>> numeric_value("CN(C)C/C=C/C(=O)Nc1cc2c(Nc3ccc(F)c(Cl)c3)ncnc2cc1O[C@H]1CCOC1.O=C(O)/C=C\\C(=O)O.O=C(O)/C=C\\C(=O)O [AFATINIB DIMALEATE]")
23
>>> numeric_value("O=C(O)c1ccc2cc(-c3ccc(O)c(C45CC6CC(CC(C6)C4)C5)c3)ccc2c1")
6
>>> numeric_value("N#Cc1cnc(Nc2cc(NC[C@H]3CNCCO3)c(C(F)(F)F)cn2)cn1")
13
>>> numeric_value("CNC(=O)c1nn(C)c2c1C(C)(C)Cc1cnc(Nc3ccc(N4CCN(C)CC4)cc3)nc1-2")
17

Provide Population Fragmented Nuclei (%) for all items below, preserving their order.
1. COc1cc2c(Nc3ccc(NC(=O)c4ccccc4)cc3)ncnc2cc1OCCCN1CCOCC1
2. COc1cc2c(NC3CCN(C(C)C)CC3)nc(N3CCC(F)(F)CC3)nc2cc1OCCCN1CCCC1
3. CCOc1cc(N2CCC(O)CC2)ccc1Nc1ncc2c(n1)N(C1CCCC1)CCC(=O)N2C

Key:
1. 13
2. 16
3. 18

Exercise: # Population Fragmented Nuclei (%) lookup, item CNC(=O)c1cc(Oc2ccc(NC(=O)Nc3cc(C(C)(C)C)nn3-c3ccc4ncccc4c3)c(F)c2)ccn1
Key: 22
